Experimental System: BRM (Homo sapiens, UniProt P51531)
Construct: made in house; host or cells: High Five insect cells
Sequence (P51531 whole entry): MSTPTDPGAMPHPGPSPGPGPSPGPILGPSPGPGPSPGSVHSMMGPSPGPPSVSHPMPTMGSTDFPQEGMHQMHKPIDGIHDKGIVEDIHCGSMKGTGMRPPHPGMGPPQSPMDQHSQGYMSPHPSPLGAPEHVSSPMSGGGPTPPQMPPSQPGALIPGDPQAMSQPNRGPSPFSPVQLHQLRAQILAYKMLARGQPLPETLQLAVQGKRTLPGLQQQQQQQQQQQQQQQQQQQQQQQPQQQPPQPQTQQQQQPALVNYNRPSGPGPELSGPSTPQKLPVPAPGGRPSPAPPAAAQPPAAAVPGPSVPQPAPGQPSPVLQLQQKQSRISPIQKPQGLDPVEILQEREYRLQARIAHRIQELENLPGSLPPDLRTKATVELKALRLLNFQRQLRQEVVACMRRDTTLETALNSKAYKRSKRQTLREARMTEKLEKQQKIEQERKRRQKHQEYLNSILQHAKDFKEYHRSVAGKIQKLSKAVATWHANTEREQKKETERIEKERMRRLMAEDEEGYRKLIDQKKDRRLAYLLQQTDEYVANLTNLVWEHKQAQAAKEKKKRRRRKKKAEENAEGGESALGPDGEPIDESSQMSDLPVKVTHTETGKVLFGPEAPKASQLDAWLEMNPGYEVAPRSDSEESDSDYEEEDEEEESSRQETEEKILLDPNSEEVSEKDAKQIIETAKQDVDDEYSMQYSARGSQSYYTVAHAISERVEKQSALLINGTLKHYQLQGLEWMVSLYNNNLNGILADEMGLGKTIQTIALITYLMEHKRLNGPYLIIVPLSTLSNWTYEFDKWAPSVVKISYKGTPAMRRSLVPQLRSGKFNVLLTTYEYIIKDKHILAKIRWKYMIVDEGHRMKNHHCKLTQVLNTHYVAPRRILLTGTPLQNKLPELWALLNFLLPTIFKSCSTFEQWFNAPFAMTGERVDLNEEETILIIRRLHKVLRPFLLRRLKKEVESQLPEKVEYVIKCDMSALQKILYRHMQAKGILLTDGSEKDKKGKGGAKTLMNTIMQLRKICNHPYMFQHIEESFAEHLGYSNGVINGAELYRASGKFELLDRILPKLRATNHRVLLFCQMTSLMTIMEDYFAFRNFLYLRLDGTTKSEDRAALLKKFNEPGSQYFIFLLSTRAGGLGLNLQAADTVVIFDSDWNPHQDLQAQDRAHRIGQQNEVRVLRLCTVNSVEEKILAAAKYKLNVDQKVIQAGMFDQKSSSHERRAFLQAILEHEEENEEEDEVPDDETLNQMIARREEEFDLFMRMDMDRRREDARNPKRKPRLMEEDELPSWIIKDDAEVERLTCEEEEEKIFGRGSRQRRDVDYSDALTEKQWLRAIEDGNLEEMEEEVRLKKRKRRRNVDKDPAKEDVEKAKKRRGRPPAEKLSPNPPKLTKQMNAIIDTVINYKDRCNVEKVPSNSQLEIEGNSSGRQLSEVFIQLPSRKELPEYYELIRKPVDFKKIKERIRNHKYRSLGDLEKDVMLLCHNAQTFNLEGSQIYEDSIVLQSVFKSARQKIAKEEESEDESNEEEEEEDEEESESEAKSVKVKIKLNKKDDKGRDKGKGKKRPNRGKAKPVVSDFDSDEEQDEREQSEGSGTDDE
Experimental Details: ATPase catalytic activity of BRM, ADP-Glo in vitro biochemical assay
Condition Summary: ATPase catalytic activity, 30 nM BRM, 400 μM ATP, read-out: BRM IP50 (μM)*
Each item that follows carries a reported IC50.

Please review the following examples before continuing.
- Compound: "COC[C@H](NC(=O)c1ccn(S(C)(=O)=O)c1)C(=O)Nc1nc(-c2cccc(C3CC(C)(C)OC(C)(C)C3)c2)cs1 [Compound 353]"
  IC50: "> 0.01 µM"
- Compound: "COC[C@H](NC(=O)c1ccn(C(C)(C)C)c1)C(=O)Nc1nc(-c2ccc3c(c2)C(=O)N(C)CC3)cs1 [Compound 64]"
  IC50: "> 0.01 µM"
- Compound: "COCC1CCN(c2cccc(-c3csc(NC(=O)CNC(=O)c4ccn(S(C)(=O)=O)c4)n3)c2)CC1 [Compound 91]"
  IC50: "> 0.01 µM"
- Compound: "Cn1ccc(-c2cccc(-c3csc(NC(=O)CNC(=O)c4ccn(C5(C)COC5)c4)n3)n2)n1 [Compound 327]"
  IC50: "> 0.01 µM"
- Compound: "CC(C)(C)[C@H](NC(=O)c1ccn(S(C)(=O)=O)c1)C(=O)Nc1nc(-c2cccc(-c3ccncc3)c2)cs1 [Compound 74]"
  IC50: "> 1 µM"
- Compound: "C[C@@H]1CN(c2cc(-c3csc(NC(=O)CNC(=O)c4ccn(S(C)(=O)=O)c4)n3)cc(F)c2F)C[C@H](C)O1 [Compound 384]"
  IC50: "< 0.01 µM"
- Compound: "C[C@H](NC(=O)c1ccn(S(C)(=O)=O)c1)C(=O)Nc1nc(-c2cccc(-c3cnn(C)n3)c2)cs1 [Compound 355]"
  IC50: "> 0.01 µM"
- Compound: "CC[C@H]1CN(c2cccc(-c3csc(NC(=O)CNC(=O)c4ccn(S(C)(=O)=O)c4)n3)c2)CCO1 [Compound 236]"
  IC50: "> 0.01 µM"

The value of IC50 recorded for CC1(n2ccc(C(=O)NCC(=O)Nc3nc(-c4ccnc(N5CCC(O)CC5)n4)cs3)c2)COC1 [Compound 321] when tested on BRM (Homo sapiens, UniProt P51531) reads > 0.01 µM

The value of IC50 recorded for CC1(C)CN(c2cccc(-c3csc(NC(=O)CNC(=O)c4ccn(S(C)(=O)=O)c4)n3)c2)CC(C)(C)O1 [Compound 203] when tested on BRM (Homo sapiens, UniProt P51531) reads > 0.01 µM

The value of IC50 recorded for CC(C)(C)n1ccc(C(=O)NCC(=O)Nc2nc(-c3cccc(N4CC(N5CCOCC5)C4)n3)cs2)c1 [Compound 317] when tested on BRM (Homo sapiens, UniProt P51531) reads > 0.1 µM

====

Each item that follows carries a reported IC50.
Experimental System: BRG-1 (Homo sapiens, UniProt P51532)
Construct: made in house; host or cells: High Five insect cells
Sequence (P51532 whole entry): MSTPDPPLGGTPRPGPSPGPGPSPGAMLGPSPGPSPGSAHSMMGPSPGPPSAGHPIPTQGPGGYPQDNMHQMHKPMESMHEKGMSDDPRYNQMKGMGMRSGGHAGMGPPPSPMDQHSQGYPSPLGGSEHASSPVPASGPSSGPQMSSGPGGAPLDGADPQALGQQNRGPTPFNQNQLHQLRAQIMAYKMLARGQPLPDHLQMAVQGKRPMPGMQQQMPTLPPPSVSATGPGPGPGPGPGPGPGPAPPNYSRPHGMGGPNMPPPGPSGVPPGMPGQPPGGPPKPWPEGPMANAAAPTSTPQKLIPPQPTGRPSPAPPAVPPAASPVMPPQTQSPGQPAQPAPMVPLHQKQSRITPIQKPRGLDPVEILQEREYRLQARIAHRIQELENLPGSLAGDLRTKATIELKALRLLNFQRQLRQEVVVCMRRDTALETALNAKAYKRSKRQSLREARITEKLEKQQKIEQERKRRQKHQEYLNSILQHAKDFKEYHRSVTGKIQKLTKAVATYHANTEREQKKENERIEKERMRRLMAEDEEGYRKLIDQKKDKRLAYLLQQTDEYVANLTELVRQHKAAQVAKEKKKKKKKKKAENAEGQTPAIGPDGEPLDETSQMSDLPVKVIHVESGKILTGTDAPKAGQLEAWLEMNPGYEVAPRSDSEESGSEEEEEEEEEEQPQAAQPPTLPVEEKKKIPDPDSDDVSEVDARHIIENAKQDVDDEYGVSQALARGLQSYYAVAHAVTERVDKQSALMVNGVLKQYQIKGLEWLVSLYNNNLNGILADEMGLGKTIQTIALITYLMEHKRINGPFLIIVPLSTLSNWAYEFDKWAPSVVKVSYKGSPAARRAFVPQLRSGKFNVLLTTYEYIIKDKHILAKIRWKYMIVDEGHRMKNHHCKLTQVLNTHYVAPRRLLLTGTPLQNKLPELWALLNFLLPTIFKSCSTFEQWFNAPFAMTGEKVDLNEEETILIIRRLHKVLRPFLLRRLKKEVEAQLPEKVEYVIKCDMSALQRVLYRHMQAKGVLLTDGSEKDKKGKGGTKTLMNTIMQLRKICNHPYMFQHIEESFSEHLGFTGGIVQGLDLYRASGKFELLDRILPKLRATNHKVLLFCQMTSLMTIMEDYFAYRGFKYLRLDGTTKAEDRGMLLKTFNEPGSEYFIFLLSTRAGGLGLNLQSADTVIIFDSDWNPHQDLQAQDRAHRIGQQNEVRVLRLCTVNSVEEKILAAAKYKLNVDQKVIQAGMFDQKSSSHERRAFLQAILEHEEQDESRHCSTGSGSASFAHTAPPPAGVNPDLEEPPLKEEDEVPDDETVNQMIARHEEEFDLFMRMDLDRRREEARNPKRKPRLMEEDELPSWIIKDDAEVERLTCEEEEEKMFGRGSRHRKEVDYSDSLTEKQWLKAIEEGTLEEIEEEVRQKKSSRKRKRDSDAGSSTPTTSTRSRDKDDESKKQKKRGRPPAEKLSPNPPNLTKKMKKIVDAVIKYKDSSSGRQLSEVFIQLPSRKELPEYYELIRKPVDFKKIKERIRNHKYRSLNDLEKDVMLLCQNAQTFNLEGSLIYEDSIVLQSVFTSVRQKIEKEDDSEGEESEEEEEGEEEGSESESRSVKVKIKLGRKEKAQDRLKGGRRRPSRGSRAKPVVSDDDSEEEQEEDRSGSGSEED
Experimental Details: ATPase catalytic activity of BRG-1, ADP-Glo in vitro biochemical assay
Condition Summary: ATPase catalytic activity, 30 nM BRG-1, 400 μM ATP, read-out: BRG1 IP50

Please review the following examples before continuing.
- Substance Smiles: "COC[C@H](NC(=O)c1ccn(S(C)(=O)=O)c1)C(=O)Nc1nc(-c2cccc(C#N)c2)cs1"
  Experimental System: "BRG-1 (Homo sapiens, UniProt P51532)"
  IC50: "> 10 nM"
- Substance Smiles: "CC(C)(C)n1ccc(C(=O)NCC(=O)Nc2nc(-c3cccc(C4(CO)CC4)n3)cs2)c1"
  Experimental System: "BRG-1 (Homo sapiens, UniProt P51532)"
  IC50: "> 100 nM"
- Substance Smiles: "CS(=O)(=O)n1ccc(C(=O)NCC(=O)Nc2nc(-c3cc(Cl)cc(C#N)c3)cs2)c1"
  Experimental System: "BRG-1 (Homo sapiens, UniProt P51532)"
  IC50: "> 10 nM"
- Substance Smiles: "CS(=O)(=O)n1ccc(C(=O)NCC(=O)Nc2nc(-c3cccc([C@@H]4CC4(F)F)c3)cs2)c1"
  Experimental System: "BRG-1 (Homo sapiens, UniProt P51532)"
  IC50: "> 10 nM"
- Substance Smiles: "CS(=O)(=O)n1ccc(C(=O)NCC(=O)Nc2nc(-c3cc(F)c4c(c3)C(F)(F)CC4)cs2)c1"
  Experimental System: "BRG-1 (Homo sapiens, UniProt P51532)"
  IC50: "< 10 nM"

Please fill in: IC50 reported for Cn1ccc2ccc(-c3csc(NC(=O)CNC(=O)c4ccn(C56CC(C5)C6)c4)n3)cc2c1=O = > 100 nM

Please fill in: IC50 reported for COC[C@H](NC(=O)c1ccn(S(C)(=O)=O)c1)C(=O)Nc1nc(-c2cccc(N3CCC(C(F)F)CC3)c2)cs1 = > 10 nM

====

Experimental System: BRG-1 (Homo sapiens, UniProt P51532)
Construct: made in house; host or cells: High Five insect cells
Experimental Details: ATPase catalytic activity of BRG-1, ADP-Glo in vitro biochemical assay
Condition Summary: ATPase catalytic activity, 30 nM BRG-1, 400 μM ATP, read-out: BRG1 IP50 (μM)*
Each item that follows carries a reported IC50.

Please review the following examples before continuing.
- Substance Smiles: "NCCn1ccc(C(=O)NCC(=O)Nc2nc(-c3cccc(-c4ccncc4)c3)cs2)c1"
  IC50: "> 0.1 µM"
- Substance Smiles: "C[C@@H]1C[C@H](COc2cccc(-c3csc(NC(=O)CNC(=O)c4ccn(S(C)(=O)=O)c4)n3)c2)C[C@H](C)O1"
  IC50: "> 0.1 µM"

Now let's try a different one.
The value of IC50 recorded for CO[C@]1(C)CCCN(c2cccc(-c3csc(NC(=O)CNC(=O)c4ccn(S(C)(=O)=O)c4)n3)c2)C1 when tested on BRG-1 (Homo sapiens, UniProt P51532) reads > 0.01 µM

====

Experimental System: BRM (Homo sapiens)
Construct: made in house; host or cells: High Five insect cells
Experimental Details: ATPase catalytic activity of BRM, ADP-Glo in vitro biochemical assay
Condition Summary: ATPase catalytic activity, 30 nM BRM, 400 μM ATP, read-out: BRM IP50 (μM)*
Each item that follows carries a reported IC50.

Please review the following examples before continuing.
- Substance Smiles: "C[C@@H]1CN(c2cc(-c3csc(NC(=O)CNC(=O)c4ccn(S(C)(=O)=O)c4)n3)cc(C3CC3)c2)C[C@H](C)O1"
  Experimental System: "BRM (Homo sapiens)"
  IC50: "> 0.1 µM"
- Substance Smiles: "C[C@@H]1CN(c2cccc(-c3csc(NC(=O)CNC(=O)c4ccn(S(C)(=O)=O)c4)n3)c2F)C[C@H](C)O1"
  Experimental System: "BRM (Homo sapiens)"
  IC50: "> 0.01 µM"
- Substance Smiles: "CS(=O)(=O)n1ccc(C(=O)NCC(=O)Nc2nc(-c3cccc(N4CC5CC(C4)O5)c3)cs2)c1"
  Experimental System: "BRM (Homo sapiens)"
  IC50: "> 0.01 µM"

Please fill in: IC50 reported for Cn1nc(-c2cccc(-c3csc(NC(=O)CNC(=O)c4ccn(C(C)(C)C)c4)n3)c2)cc1CO = > 0.01 µM

====

Each item that follows carries a reported IC50.
Experimental System: BRG-1 (Homo sapiens)
Construct: made in house; host or cells: High Five insect cells
Experimental Details: ATPase catalytic activity of BRG-1, ADP-Glo in vitro biochemical assay
Condition Summary: ATPase catalytic activity, 30 nM BRG-1, 400 μM ATP, read-out: BRG1 IP50 (μM)*

- Compound: "CC(C)(C)n1ccc(C(=O)NCC(=O)Nc2nc(-c3cccc(-c4ccncc4)c3)cs2)c1"
  IC50: "> 0.01 µM"
- Compound: "C[C@@H]1CN(c2cc(-c3csc(NC(=O)CNC(=O)c4ccn(C(C)(C)C)c4)n3)ccn2)C[C@H](C)O1"
  IC50: "> 0.01 µM"
- Compound: "CO[C@@]1(C)CCCN(c2cccc(-c3csc(NC(=O)CNC(=O)c4ccn(S(C)(=O)=O)c4)n3)c2)C1"
  IC50: "> 0.01 µM"
- Compound: "CCOc1cccc(-c2csc(NC(=O)CNC(=O)c3ccn(S(C)(=O)=O)c3)n2)c1"
  IC50: "> 0.01 µM"

Please fill in: IC50 reported for CC1(C)CN(c2cccc(-c3csc(NC(=O)CNC(=O)c4ccn(S(C)(=O)=O)c4)n3)c2)CCC1O (stereo not shown) = > 0.01 µM

Please fill in: IC50 reported for Cc1nc(-c2cccc(-c3csc(NC(=O)CNC(=O)c4ccn(S(C)(=O)=O)c4)n3)c2)c[nH]1 = > 0.01 µM

Please fill in: IC50 reported for COc1cccc(-c2csc(NC(=O)CNC(=O)c3ccn(C(C)(C)C)c3)n2)c1 = > 0.1 µM
